Here the recorded kon is given for each entry.
Target: T1, Biotinylated murine VEGF-164 (Acro Biosystem) (mouse, UniProt Q00731-2 27-190, biotinylated (site not stated))
T1 construct: Bought protein; also called Mouse VEGF164; mouse VEGFA
T1 sequence (looked up): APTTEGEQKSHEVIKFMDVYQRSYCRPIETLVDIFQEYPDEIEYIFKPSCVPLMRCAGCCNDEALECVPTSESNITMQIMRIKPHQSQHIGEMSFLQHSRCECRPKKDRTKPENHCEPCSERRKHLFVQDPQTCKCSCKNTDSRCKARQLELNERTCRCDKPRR
Assay: BLI, biotinylated antigen on streptavidin tips, 1:1 global fit
Procedure: Binding characterization was performed using BLI (Satorius) at RT with a 1000 rpm flow-rate. Biotinylated human VEGF-165 (Acro Biosystem) was immobilized onto Streptavidin-coated tips at a concentration of 3 μg/mL for 60 sec in BLI buffer (0.1% BSA and 0.01% Tween-20 in PBS). […] The background buffer signal was subtracted using the 0 nM concentration reference, and the kinetics of binding were calculated using a global fit following a 1:1 binding model, using BLI Analysis Software. […]

Worked examples follow.
Binder	Value
20A2.1 (VHH, Autonomous humanised VH domain (DotBody), from the 16A2.1-based library with heat challenge; E. coli, ATG codon 5' (possible initiator Met), 3' hexahistidine tag; also called DotBody 20A2.1) VHH: EVQLVESGGGLVQPGGSLRLSCAISGFPLADTDIDWVRQAPGKGLEWVARIFSSYGSTDYADSVKGRFTISADTSKNTVYLQMNSLRAEDTAVYYCGRSDSIAYNIILPASTYSSRDYRGQGTLVTVSS	132000 M⁻¹ s⁻¹
21A1.1 (VHH, Autonomous humanised VH domain (DotBody), from the 16C2.1-based library with heat challenge; E. coli, ATG codon 5' (possible initiator Met), 3' hexahistidine tag; also called DotBody 21A1.1) VHH: EVQLVESGGGLVQPGGSLRLSCAISGFALATTDIDWVRQAPGKGLEWVARIFNPSDFTDYADSVKGRFTISADTSKNTVYLQMNSLRAEDTAVYYCGRPAVYGYNIFLDSPTYDASQYRGQGTLVTVSS	167000 M⁻¹ s⁻¹
21E6.1 (VHH, Autonomous humanised VH domain (DotBody), from the 16C2.1-based library with heat challenge; E. coli, ATG codon 5' (possible initiator Met), 3' hexahistidine tag; also called DotBody 21E6.1) VHH: EVQLVESGGGLVQPGGSLRLSCAISGFTLAATDIDWVRQAPGKGLEWVARIFTPTGFSDYADSVKGRFTISADTSKNTVYLQMNSLRAEDTAVYYCGIPELYAYNIFMDIPAYNDVYYRGQGTLVTVSS	82800 M⁻¹ s⁻¹

Consider the additional binder presented here.
Request: Fill in the blank: the reported kon of 21D9.1 (VHH, Autonomous humanised VH domain (DotBody), from the 16C2.1-based library with heat challenge; E. coli, ATG codon 5' (possible initiator Met), 3' hexahistidine tag; also called DotBody 21D9.1) VHH: EVQLVESGGGLVQPGGSLRLSCAISGFSLGATDIDWVRQAPGKGLEWVARIFSPSDFTDYADSVKGRFTISADTSKNTVYLQMNSLRAEDTAVYYCSRPDTYAYNIFPHTASHGAFNYRGQGTLVTVSS is ____.
Result: 58000 M⁻¹ s⁻¹
